Target: plasma purified human complement protein C3 (human) (UniProt P01024)
Sequence (P01024 23-667, chain 1 of 2): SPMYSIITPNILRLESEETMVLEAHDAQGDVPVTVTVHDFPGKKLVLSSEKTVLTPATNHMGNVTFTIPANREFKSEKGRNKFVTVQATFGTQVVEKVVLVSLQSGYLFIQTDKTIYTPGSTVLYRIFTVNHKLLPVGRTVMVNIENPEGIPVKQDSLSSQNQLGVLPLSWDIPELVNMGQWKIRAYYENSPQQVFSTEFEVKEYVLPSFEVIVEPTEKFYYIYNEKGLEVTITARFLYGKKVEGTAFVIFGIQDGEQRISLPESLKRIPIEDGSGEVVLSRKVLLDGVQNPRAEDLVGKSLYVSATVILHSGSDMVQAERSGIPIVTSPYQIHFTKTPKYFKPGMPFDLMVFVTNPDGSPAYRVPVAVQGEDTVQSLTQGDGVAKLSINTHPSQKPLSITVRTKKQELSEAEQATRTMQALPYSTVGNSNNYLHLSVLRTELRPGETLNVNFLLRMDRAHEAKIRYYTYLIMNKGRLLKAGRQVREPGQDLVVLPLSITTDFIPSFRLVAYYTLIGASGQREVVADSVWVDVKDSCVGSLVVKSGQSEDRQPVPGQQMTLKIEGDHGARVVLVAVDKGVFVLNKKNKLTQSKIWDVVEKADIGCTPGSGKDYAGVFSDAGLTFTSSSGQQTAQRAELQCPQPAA
Sequence (P01024 672-1663, chain 2 of 2): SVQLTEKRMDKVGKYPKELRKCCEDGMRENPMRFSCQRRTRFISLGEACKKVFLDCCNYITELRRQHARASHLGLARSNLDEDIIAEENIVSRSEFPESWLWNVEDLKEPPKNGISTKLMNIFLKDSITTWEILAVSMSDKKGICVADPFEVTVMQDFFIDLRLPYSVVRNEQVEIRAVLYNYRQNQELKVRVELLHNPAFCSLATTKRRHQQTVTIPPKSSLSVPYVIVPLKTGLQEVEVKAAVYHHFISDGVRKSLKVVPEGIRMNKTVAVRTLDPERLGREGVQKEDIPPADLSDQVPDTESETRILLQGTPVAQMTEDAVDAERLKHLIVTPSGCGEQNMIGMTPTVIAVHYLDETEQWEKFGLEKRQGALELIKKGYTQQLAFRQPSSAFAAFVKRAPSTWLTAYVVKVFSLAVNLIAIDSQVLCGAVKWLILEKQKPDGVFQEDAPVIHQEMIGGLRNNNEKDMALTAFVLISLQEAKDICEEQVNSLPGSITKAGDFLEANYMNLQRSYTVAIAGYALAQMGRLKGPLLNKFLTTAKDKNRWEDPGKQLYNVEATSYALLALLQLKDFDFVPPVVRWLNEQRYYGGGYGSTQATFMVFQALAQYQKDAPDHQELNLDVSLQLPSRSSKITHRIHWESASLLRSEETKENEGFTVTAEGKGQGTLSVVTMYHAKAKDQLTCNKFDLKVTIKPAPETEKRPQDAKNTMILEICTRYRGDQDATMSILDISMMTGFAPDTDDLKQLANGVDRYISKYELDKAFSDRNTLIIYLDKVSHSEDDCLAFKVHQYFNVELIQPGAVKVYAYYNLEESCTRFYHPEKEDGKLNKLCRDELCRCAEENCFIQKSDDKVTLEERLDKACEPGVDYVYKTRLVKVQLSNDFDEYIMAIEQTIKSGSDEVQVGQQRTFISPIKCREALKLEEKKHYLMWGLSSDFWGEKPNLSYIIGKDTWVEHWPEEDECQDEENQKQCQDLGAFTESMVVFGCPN
Test: cell-based or functional assay
Below: a set of entries, each annotated with reported EC50 of hC3 cleavage.
State just the number; it will be interpreted in nM.

| Binder | Data value |
| --- | --- |
| MTSP-1 Q38H/I41S/L52M/D60bH/D96V/ins97aV/F97D/T98P/F99L/C122S/T150A/Q192G/Q209L/D217T (enzyme) VVGGTDADEGEWPWQVSLHALGHGHSCGASLISPNWMVSAAHCYIDHRGFRYSDPTQWTAFLGLHDQSQRSAPGVQERRLKRIISHPFFNVDVPLDYDIALLELEKPAEYSSMVRPISLPDASHVFPAGKAIWVTGWGHTQYGGAGALILQKGEIRVINQTTCENLLPQQITPRMMCVGFLSGGVDSCGGDSGGPLSSVEADGRIFLAGVVSWGTGCAQRNKPGVYTRLPLFRDWIKENTGV | 16.9 |

Field request: EC50 of hC3 cleavage | item: MTSP-1 H40R/I41H/F97D/C122S/G151N/L153R (enzyme) VVGGTDADEGEWPWQVSLHALGQGRHCGASLISPNWLVSAAHCYIDDRGFRYSDPTQWTAFLGLHDQSQRSAPGVQERRLKRIISHPFFNDDTFDYDIALLELEKPAEYSSMVRPISLPDASHVFPAGKAIWVTGWGHTQYGGTNARILQKGEIRVINQTTCENLLPQQITPRMMCVGFLSGGVDSCQGDSGGPLSSVEADGRIFQAGVVSWGDGCAQRNKPGVYTRLPLFRDWIKENTGV 126

Request: MTSP-1 I41R/Y59F/ins97aE/F97T/T98G/F99L/C122S/Q175L/Q192D (enzyme) VVGGTDADEGEWPWQVSLHALGQGHRCGASLISPNWLVSAAHCFIDDRGFRYSDPTQWTAFLGLHDQSQRSAPGVQERRLKRIISHPFFNDTEGLDYDIALLELEKPAEYSSMVRPISLPDASHVFPAGKAIWVTGWGHTQYGGTGALILQKGEIRVINQTTCENLLPQLITPRMMCVGFLSGGVDSCDGDSGGPLSSVEADGRIFQAGVVSWGDGCAQRNKPGVYTRLPLFRDWIKENTGV 288
